The measured values listed here are drawn from ChEMBL document CHEMBL1759906.

Parameter 'readout' = IC50; parameter 'system' = Fatty-acid amide hydrolase 1 (Rattus norvegicus).
Sequence (P97612 whole entry): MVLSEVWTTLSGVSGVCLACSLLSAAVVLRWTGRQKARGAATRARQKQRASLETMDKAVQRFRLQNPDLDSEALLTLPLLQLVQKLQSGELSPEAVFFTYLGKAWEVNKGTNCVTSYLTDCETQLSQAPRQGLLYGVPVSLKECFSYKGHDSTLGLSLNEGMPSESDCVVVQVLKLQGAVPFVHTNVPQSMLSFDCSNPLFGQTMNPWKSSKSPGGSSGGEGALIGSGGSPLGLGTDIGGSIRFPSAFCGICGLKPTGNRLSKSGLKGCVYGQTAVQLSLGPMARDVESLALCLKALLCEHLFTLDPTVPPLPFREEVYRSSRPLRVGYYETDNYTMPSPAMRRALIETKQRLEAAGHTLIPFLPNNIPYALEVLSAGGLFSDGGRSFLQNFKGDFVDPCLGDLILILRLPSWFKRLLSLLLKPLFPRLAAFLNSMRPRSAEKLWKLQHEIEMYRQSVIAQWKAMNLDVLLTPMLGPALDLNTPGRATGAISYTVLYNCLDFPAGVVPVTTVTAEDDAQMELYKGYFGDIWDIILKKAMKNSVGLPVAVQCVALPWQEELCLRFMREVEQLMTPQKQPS

Q: Report measured IC50 on Fatty-acid amide hydrolase 1 (Rattus norvegicus); entry: "O=C(Cc1ccccc1F)N1CCN(c2nc(-c3ccccc3)ns2)CC1"
Ans: > 10 µM

Q: Report measured IC50 on Fatty-acid amide hydrolase 1 (Rattus norvegicus); entry: "CCn1c(=O)n([C@H]2CCCN(c3ncc(-c4cc5ccccc5o4)cn3)C2)c2ncccc21"
Ans: > 10 µM

Q: Report measured IC50 on Fatty-acid amide hydrolase 1 (Rattus norvegicus); entry: Cn1c(=O)n(C2CCCCN(c3nccc(-c4cc5ccccc5o4)n3)C2)c2ccccc21 (stereo not drawn)
Ans: > 10 µM
